Experiment: Tanguay_ZF_120hpf_AXIS_legacy: (Legacy) Oregon State University Tanguay Lab 120 Hour Post-fertilization zebrafish Assay for Body Axis Malformation (AID 2283635)
Protocol: Tanguay_ZF_120hpf_legacy is a whole embryo, multiplexed endpoint assay using zebrafish larvae exposed for 120 hours post fertilization on a 96-well plate.Tanguay_ZF_120hpf_AXIS_legacy is one of one assay component(s) measured or calculated from the Tanguay_ZF_120hpf_legacy assay. […] This assay endpoint, Tanguay_ZF_120hpf_AXIS_legacy, was analyzed in the positive analysis fitting direction relative to DMSO as the negative control and baseline of activity. […]
Results filed as inconclusive are left out. Activity calls are given as the source filed them. The calls were made as follows: active = hit-call score of the fitted dose curve at least 0.9, where 1 is the maximum; inconclusive = response in the unintended direction; inactive = score below 0.9.
Select the correct class. Options are 1.0 (active), 0.0 (inactive) and nothing else.

Exam item: Test call for this compound, please: "O=C(Nc1ccc(Cl)cc1)Nc1ccc(Cl)c(Cl)c1"
Marked response: 0.0

Exam item: Please share the test call associated with "CC(C)(c1cc(Br)c(O)c(Br)c1)c1cc(Br)c(O)c(Br)c1" .
Marked response: 0.0

Exam item: Which outcome was assigned to CN1C(=O)N(c2ccccc2Br)Cc2cnc(Nc3ccc4c(c3)OCC(CO)O4)nc21 (centres undefined) in this test?
Marked response: 1.0

Exam item: Short answer needed: outcome of this test for "CCOC(=O)O[C@H](C)OC(=O)c1ccc2c(c1)cc(C(=O)NC1CCN(C(C)C)CC1)n2Cc1cc(-c2ccc(Cl)s2)on1" ?
Marked response: 0.0

Exam item: What did this assay record as the result for "CCN(CC)C(=O)c1cc(S(=O)(=O)Cc2ccccc2)c(N2CCC(c3ccccc3)CC2)cc1N(CC)CCN(C)C" ?
Marked response: 1.0

Exam item: Which outcome was entered for the compound "O=C=NCCCCCCN=C=O" in this test?
Marked response: 0.0

Exam item: What call does the record list for "c1ccc2n[nH]nc2c1" ?
Marked response: 0.0

Exam item: Fill in: this test's call for "C[C@]12CC[C@@H]3c4ccc(O)cc4CC[C@H]3[C@@H]1CC[C@H]2O" is ___
Marked response: 0.0

Exam item: For this compound, state the assay outcome: "CCCC(=O)OCCC(C)C"
Marked response: 0.0

Exam item: # fetch the recorded call for "CCCCCCCCOC(=O)c1cc(O)c(O)c(O)c1" here
Marked response: 0.0

Exam item: What call does the record list for "CCCCCCCCOc1ccc(C(=O)c2ccccc2)c(O)c1" ?
Marked response: 0.0

Exam item: Any idea what this test logged for "COc1cccc([C@H](O)C2CCN(CCc3ccc(F)cc3)CC2)c1OC" ?
Marked response: 1.0

Exam item: Entry "Oc1ccc2ccccc2c1" : call = ?
Marked response: 1.0

Exam item: Lab log entry: "Cc1ccc2oc(CN(Cc3ccccc3)C(=O)Nc3c(F)cc(F)cc3F)c(-c3ccc(Cl)cc3)c2c1" — outcome as called in the assay?
Marked response: 0.0
